# credit: patent US8114968

Parameter IC50 (nM), IgGs: see the listing below.
target: human MMP-12 (human, UniProt P39900 106-470, limits assumed); assay: cell-based or functional assay
Sequence (P39900 106-470 limits assumed): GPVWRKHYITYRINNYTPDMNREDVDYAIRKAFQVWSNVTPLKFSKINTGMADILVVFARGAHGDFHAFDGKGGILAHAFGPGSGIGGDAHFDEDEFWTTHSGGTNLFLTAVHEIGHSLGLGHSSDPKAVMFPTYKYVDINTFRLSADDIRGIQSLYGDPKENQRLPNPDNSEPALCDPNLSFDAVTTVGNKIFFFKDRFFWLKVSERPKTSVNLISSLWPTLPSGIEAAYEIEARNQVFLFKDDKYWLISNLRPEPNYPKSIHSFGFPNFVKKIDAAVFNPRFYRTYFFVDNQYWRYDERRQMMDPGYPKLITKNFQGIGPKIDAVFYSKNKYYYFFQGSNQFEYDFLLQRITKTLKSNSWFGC
# output: numeric value plus its unit

Bench note: what IC50 (nM), IgGs did 539A-M0027-E11 IgG (antibody, V domains shown) VH: EVQLLESGGGLVQPGGSLRLSCAASGFTFSHYEMEWVRQAPGKGLEWVSSISSSGGPTMYADSVKGRFTISRDNSKNTLYLQMNSLRAEDTAVYYCARGMYGDYDFYYYYGMDVWGQGTTVTVSS VL: DIQMTQSPDTLSLSPGERGTLSCRASQSLSSSYLAWYQQKPGQAPRLLIYDASSRATGIPDRFSGSGSGTDFTLTIGRLEPEDSAVYYCQQYGSFPLTFGGGTKVEIK show? 23.7 nM

Bench note: what IC50 (nM), IgGs did 539A-M0014-C09 IgG (antibody, V domains shown) VH: EVQLLESGGGLVQPGGSLRLSCAASGFTFSDYSMHWVRQAPGKGLEWVSGIGPSGGPTFYADSVKGRFTISRDNSKNTLYLQMNSLRAEDTAVYYCARGEYSSSDYYYYYGMDVWGQGTTVTVSS VL: DIQMTQSPATLSLSPGERATLSCGASQNIDGYYLAWYQQKPGQAPSLLIYDASSRSTGVPDRFSGSGSGTDFTLTISRLEPEDFAVYYCQHYGNSLWTFGQGTKVEIK show? 43.3 nM
